Tgt: T1, human CD3e/d (human, UniProt P07766 23-126; P04234 22-105)
T1 construct: Bought soluble protein; also called hCD3e/d; human CD3/ed (Sino CT038-H2508H)
Assay Details: SPR (Carterra LSA), mAb on chip
Attribute: Kd
Please respond with the number in nM and leave the unit unwritten.

[
  {
    "Binder": "mAb 218 (antibody, V domains shown, VH and VL only) VH: QVQLVESGGGVVQPGRSLRLSCAASGFTFSGYGMHWVRQAPGKGLEWVAIIYYNGNNRKYADSVRGRFTISRDNSKNTVSLQMNSLRVEDTAIYYCTRGDGYNWFVTWGQGTLVTVSS VL: EIVMTQSPATLSVSPGERATLSCRASQSVSSNLAWYYQKPGQAPRLLIYGASTRATGIPVRFSGSGSGTEFTLTISSLQSEDFAVYYCQQYNNWPLTFGGGTKVEIK",
    "Recorded Value": 62
  }
]

Could you now consider this next binder?
response.value for mAb 264 (antibody, V domains shown, VH and VL only) VH: EVQLLESGGGLVQPGGSLRLSCVASGFTFRSSSMTWVRQAPGKGLEWVSGIRGSGGRTYDAESVKGRFTISRDNSKNTLYLQMNSLRAEDTAEYYCAKLYDYYNDYMDVWGKGTTVTVSS VL: SYELTQPLSVSVALGQTARITCGGNNIGSKNVHWYQQKPGQAPVLVIYRDSNRPSGIPERFSGSNSGNTATLTISRAQAGDEADYYCQVWDSSTAVFGGGTQLTAL (field: Kd) = 32
